These measurements were taken from patent US8003602B2.

Documented MIC across a set of compounds
- Test system: E. faecium (R-2)
- Type: cell-based, Enterococcus faecium
- Run Conditions: E. faecium R-2 (VRE)
State the answer as a number, implicitly in µg/mL.

[
  {
    "Compound": "C=C(NC(=O)C(=C)NC(=O)C1CCCN1C(=O)c1nc(-c2ccc(-c3nc(C(=O)NC(=C)C(=O)NC(C)C(N)=O)cs3)c(-c3csc(C4Cc5nc(cs5)C(=O)NC(Cc5ccccc5)C5=NC(CS5)C(=O)NC(Cc5ccc(OC(=O)CCC)cc5)C(=O)N5CCCC5c5nc(cs5)C(=O)N4)n3)n2)oc1C)C(N)=O (stereo not shown)",
    "Experimental Readout": "MIC",
    "Unit Symbol": "µg/mL",
    "Observed": 2.5
  },
  {
    "Compound": "C=C(NC(=O)C(=C)NC(=O)C1CCCN1C(=O)c1nc(-c2ccc(-c3nc(C(=O)NC(=C)C(=O)NC(C)C(N)=O)cs3)c(-c3csc(C4Cc5nc(cs5)C(=O)NC(Cc5ccccc5)C5=NC(CS5)C(=O)NC(Cc5ccc(OC(=O)CCCCCCCCCCCCCCCCC)cc5)C(=O)N5CCCC5c5nc(cs5)C(=O)N4)n3)n2)oc1C)C(N)=O (stereo not shown)",
    "Experimental Readout": "MIC",
    "Unit Symbol": "µg/mL",
    "Observed": 1.25
  }
]

Lookup: Tell me reported MIC for C=C(NC(=O)C(=C)NC(=O)C1CCCN1C(=O)c1nc(-c2ccc(-c3nc(C(=O)NC(=C)C(=O)NC(C)C(N)=O)cs3)c(-c3csc(C4Cc5nc(cs5)C(=O)NC(Cc5ccccc5)C5=NC(CS5)C(=O)NC(Cc5ccc(OC(=O)c6cccnc6)cc5)C(=O)N5CCCC5c5nc(cs5)C(=O)N4)n3)n2)oc1C)C(N)=O (stereo not shown) , tested with E. faecium (R-2).
Found: 0.312

Lookup: Tell me reported MIC for C=C(NC(=O)C(=C)NC(=O)C1CCCN1C(=O)c1nc(-c2ccc(-c3nc(C(=O)NC(=C)C(=O)NC(C)C(N)=O)cs3)c(-c3csc(C4Cc5nc(cs5)C(=O)NC(Cc5ccccc5)C5=NC(CS5)C(=O)NC(Cc5ccc(O)cc5)C(=O)N5CCCC5c5nc(cs5)C(=O)N4)n3)n2)oc1C)C(N)=O (stereo not shown) , tested with E. faecium (R-2).
Found: 0.00781
